tested on: TK-10 renal; assay: NCI-60 one-dose screen, 48 h (100 = growth as untreated, 0 = no growth, -100 = all killed); conditions: 10 µM unless noted
Compounds without any hit were thinned out: in the full panel of roughly 83,000, 20% have a hit.
REPORTED_ENDPOINT: growth (%)

INSERT INTO results (molecule, units_label, readout_number) VALUES
  ('N#Cc1c(NC(=O)c2ccccc2C(F)(F)F)sc2c1CCC(=O)C2', '%', 35.1),
  ('CSc1nccc(-c2c(-c3ccc(F)c(OCc4ccc(F)cc4)c3)nc3sccn23)n1', '%', 70),
  ('Oc1ccc(-c2nnc(SCc3ccc(O)c4ncccc34)n2-c2ccccc2)cc1', '%', 34.3),
  ('COc1ccc(-c2nnc(SCc3ccc(O)c4ncccc34)n2-c2ccccc2)cc1', '%', 38.4),
  ('CCCCCCCCCC[C@@H](C)[C@@H]1CC(=O)N[C@H]([C@@H](C)O)C(=O)N[C@@H](C)C(=O)N[C@H](C)C(=O)N[C@@H](CCC(N)=O)C(=O)N[C@H](Cc2ccc(O)cc2)C(=O)N[C@@H](C(C)CC)C(=O)O1 (stereo partly drawn)', '%', 47.9),
  ('O=C1[C@H]2Cc3c([nH]c4ccccc34)[C@@H](c3c(Cl)cccc3Cl)N2C(=O)CN1C1CCN(Cc2ccccc2)CC1', '%', 46.2),
  ('Oc1ccc(-c2nnc(SCc3ccc(O)c4ncccc34)o2)cc1', '%', 13.6),
  ('O=C(CCCCCCN1CC(=O)N2[C@@H](c3ccccc3)c3[nH]c4ccccc4c3C[C@H]2C1=O)NO', '%', 69.4),
  ('O=C1NC(=O)/C(=C/c2ccc(OCc3cc4ccccc4nc3Cl)cc2)S1', '%', 110),
  ('CCOC(=O)Nc1ccc(-c2nc(-c3cccc(O)c3)c(-c3ccnc(Br)c3)[nH]2)cc1', '%', 41.9),
  ('Fc1ccccc1/C=C(/C1=NCCN1)n1cnc2ccccc21', '%', 99.4),
  ('Cc1ccc(-c2csc(N/N=C/c3nc4ccccc4n3C3CC3)n2)cc1', '%', 141),
  ('COc1ccc(-c2ccnc3c(C#N)c(Nc4ccccc4)nn23)cc1OC', '%', 65.8),
  ('O=C1/C(=C/c2ccccc2[N+](=O)[O-])Oc2ccc(O)cc21', '%', 99.1),
  ('COc1ccc(N2C(=O)c3cc(OC)c(OC)cc3NC2SCc2ccccc2)cc1 (stereo not drawn)', '%', 129),
  ('COc1cc(C(=O)C[n+]2ccc3ccccc3c2)cc(OC)c1OC', '%', 112),
  ('Oc1ccc(CSc2nnc(-c3cnccn3)o2)c2cccnc12', '%', 35.3),
  ('C/C=C/C=C1\C[C@H]2CO[C@H](O2)C1=O', '%', 108);

Sourced from PubChem BioAssay (NCI)
